measured.endpoint: melting point

These recorded examples may help you get a feel for the data.
                                   molecule  measured_endpoint          value
0  Nc1nnc(-c2ccc3ncn(-c4cc(C(F)(F)F)ccc4Cl)c3c2)o1      melting point  288 to 289 °C
1  O=C(NCCCN1CCN(c2cccc(Cl)c2)CC1)NC12CC3CC(CC(C3)C1)C2      melting point  174 to 175 °C
2  Cc1ccc(-c2cccc(/C=C/C(=O)Nc3ccc(Cn4ccnc4)cc3)c2)cc1      melting point  198 to 200 °C

Go through the items and report each one's melting point.
1. CSC1=NC(C)(C)CN1C(=O)Nc1c(C)cccc1C
2. COc1ccc(OC)c2c1C(C)(C)CCC2(C)C
3. Clc1cc(Oc2ccc3ncccc3c2)ncn1
4. CCOC(=O)c1cn(C)nc1Nc1ccc(C(F)(F)F)cc1N
5. O=C(O)Cc1ccc(NC(=O)C(COC2CCCCO2)NS(=O)(=O)c2ccc(Cl)c([N+](=O)[O-])c2)cc1 (racemic)
6. O=[N+]([O-])c1ccc(Cc2cccnc2)cc1
7. S=C1Nc2c(Cl)cccc2CS1
8. CCCC(=O)c1cnc2c(OC)nccc2c1Nc1ccccc1C

1: 178 to 179 °C; 2: 195 °C; 3: 136 to 137 °C; 4: 162 °C; 5: 131 to 140 °C; 6: 87 to 88 °C; 7: 125 to 126 °C; 8: 144 °C

Quick batch: melting point for everything below.
1. CC(C)(C)NC(=O)c1ccc(Br)cc1
2. c1cc(-c2ccn3cnnc3c2)ccn1
3. CCc1ccnc(C(=O)c2[nH]c3cc(Cl)ccc3c2CC(=O)O)c1F

126 to 128 °C
194 to 196 °C
193 to 194 °C

Quick one: give me melting point for each item below, same order please.
1. CCOP(=O)(/C=C/c1cn(-c2ccccc2)nc1OCc1ccc(OCc2nc(-c3ccco3)oc2C)c(OC)c1)OCC
2. CCC(=O)N1CCC(NC(=O)Nc2ccc(C(F)(F)F)cc2)CC1
3. CC1(C)CC(n2ccc(-c3ccc(F)cc3)c2-c2ccncc2)CC(C)(C)N1
4. CN1CCC(c2c[nH]c3ccc(NC(=N)c4cccs4)cc23)C(F)C1 (configuration not stated)
5. CN(C)CCCOc1ccccc1C=NCC(N)=O
6. CC(C)C(=O)c1ccc2cc(O)c(O)cc2c1

60 to 63 °C
224 to 228 °C
118 to 119 °C
115 to 117 °C
71 to 73 °C
154 to 156 °C

Could you tell me melting point for each of these molecules? They are listed below.
1. O=c1[nH]c2cccnc2n1-c1ccc2c(c1)OCO2
2. COc1cc2c3c(n(C)c(=O)c2cc1OC)-c1cc2c(cc1C3=CCCCCBr)OCO2

1. 256 to 258 °C
2. 196 to 197 °C

---

Provide the reported melting point of each item.

                                   compound  measured_endpoint          value
0  COc1ccc(-c2cc3c(n2-c2ccc(O)c(C(=O)O)c2)CCCC3)cc1      melting point  219 to 221 °C
1  Cc1nc2ccccc2c(=O)n1CCN1CCC(C(=O)c2ccc(F)cc2)CC1      melting point         165 °C
2      CCOC(=O)c1cc2c(cn1)[nH]c1ccc(Br)cc12      melting point  308 to 313 °C
3  Nc1nc(NC2CCC2)c2ncn(C3C=CC(CO)C3)c2n1 (stereo not given)      melting point  181 to 183 °C
4  CC(C)c1cc(O)cc(C(C)C)c1NC(=O)CN1CCN(CCSc2nc3ccccc3o2)CC1      melting point  162 to 164 °C
5                    Nc1ccccc1C(=O)C1CCCCC1      melting point    74 to 75 °C
6  COc1ccc(CN2C(=O)C3(COc4cc(OC(F)(F)F)ccc43)c3ccccc32)cc1 (stereo not given)      melting point    82 to 84 °C
7  O=C(OCC(Cn1cnc2c(Cl)nc3ccccc3c21)OC(=O)c1ccccc1)c1ccccc1 (stereo not given)      melting point  162 to 165 °C

Lab note: each compound below needs its melting point filled in.
1. CC1(C)C(=O)Nc2cc3[nH]c(C4=CCCC4)nc3cc21
2. Cc1ccc(C(=O)c2c(N)cc(C(=O)O)cc2OCc2ccccc2)cc1

1: 233 to 235 °C; 2: 182 to 184 °C

---

For each entry below, report its melting point value.

Examples from the recorded data:
>>> df
                                   compound  measured_endpoint          value
0  NS(=O)(=O)c1ccc2nc(C(F)(F)F)[nH]c(=O)c2c1      melting point  311 to 314 °C
1  Cc1ccc(C(=O)c2c(C)cc(C)cc2OCC(O)CNC(C)(C)C)cc1 (stereo not given)      melting point  116 to 118 °C
2  COC(=O)C1NC(C(=O)OC)C(C(=O)OC)NC1C(=O)OC (stereo not given)      melting point  162 to 163 °C
3  COC(=O)c1cc(C)cc2c1OCc1ccccc1C2C(=O)Nc1c(C(C)C)cccc1C(C)C (stereo not given)      melting point  136 to 138 °C

API: the following record is the query input.
melting point for "CS(=O)(=O)Nc1nc(CCN2CCC(c3c[nH]c4ccccc34)CC2)cs1" is 141 to 144 °C

---

measured.endpoint: melting point

Example molecules with recorded melting point:
                                   molecule  measured_endpoint          value
0     Fc1ccc(C(F)(F)F)cc1-c1cccn2nc(Cl)nc12      melting point    88 to 89 °C
1  ClCSc1n[nH]c(C(c2ccccc2)(c2ccccc2)c2ccccc2)n1      melting point  121 to 122 °C
2  COc1cc(OC)nc(Oc2ccc3[nH]c(C)cc3c2C(=O)OCc2ccccc2)n1      melting point  135 to 139 °C

// for each molecule in input: emit melting point
1. S=C(Nc1ccc(Cl)c(Cl)c1)Nc1ncccc1OCc1ccccc1
2. CCOC(=O)c1c[nH]cc1-c1ccc(C)cc1
3. CNC(=O)Oc1cnn(C(C)C)c1

144 to 146 °C
154 to 155 °C
40 °C

Hi team, please reply with melting point for each item in this list.
1. Cc1cc(F)ccc1Nc1nc(N(C)c2ccccc2)c2cccc(OCCCN(C)C)c2n1
2. CCCc1nc2c(C)cc(C)nc2n1Cc1ccc2oc(-c3ccccc3C(=O)O)nc2c1
3. COc1ccc2sc3nc(CO)cn3c2c1
4. COC(=O)CCc1cc(C(=O)c2cccc(C#N)c2)ccc1OCCCCC=Cc1ccc(OC)cc1
5. CCCCCc1ccc(CCC2CCC(C#N)CC2)cc1 (stereo not given)
6. CCCN1CCn2c(=O)[nH]c3cccc(c32)C1C (stereo not given)
7. CCC1C(=O)Nc2ccc(Br)cc21 (stereo not given)

1: 110 to 112 °C; 2: 150 to 160 °C; 3: 189 to 190 °C; 4: 65 to 67 °C; 5: 22.4 °C; 6: 124 °C; 7: 118 to 120 °C

Provide each entry's melting point from the list below.
1. CC(C)(CNc1ccnc2cc(Cl)ccc12)NCc1ccc(Cl)c(Cl)c1
2. CN1CCC(c2c[nH]c3ccc(OCc4ccccc4)cc23)CC1
3. CC(C)CC(CN(C)C)(C(=O)O)C(=O)O
4. O=C1C2C3CCC(C4CC43)C2C(=O)N1c1cc(Cl)cc(Cl)c1 (stereo not given)

1. 178 to 179 °C
2. 163 to 164 °C
3. 134 to 137 °C
4. 145 to 153 °C

Respectfully, I request melting point for each entry included below.
1. CNC1=CC=CC(OCCCN2CCC(c3noc4cc(F)ccc34)CC2)(C(C)=O)C1 (stereo not given)
2. C#Cc1cn(C2CC(O)C(CO)O2)c(=O)[nH]c1=O (stereo not given)
3. Cc1nc2cc3c(cc2c(=O)n1COC(=O)C(C)(C)C)CCC3
4. COc1cc(C(F)(F)F)cc(OC)c1-c1csc(NC(=O)c2cc3ccccc3n2CC(=O)OC(C)(C)C)n1
5. O=C(NC(Cc1ccc(OCc2ccccc2)cc1)C(=O)O)c1cc2cc(-c3ccc(Cl)cc3)ccc2[nH]c1=O (stereo not given)
6. Cn1ncc(NCCN2CCN(c3cccc4c3OCCO4)CC2)cc1=O
7. CCCCCCNC(=O)Oc1ccc2c(c1)N(Cc1ccccc1)CCC2

["151 to 153 °C", "175 °C", "128 °C", "214 to 216 °C", "298 to 299 °C", "188 to 190 °C", "85 °C"]

Take each entry in turn and give its melting point.
1. CCOC(=O)C(NC(=O)OCc1ccccc1)OCC (stereo not given)
2. CC(=O)Nc1ccc(C=CC(=O)N2CCc3c([nH]c4ccccc34)C2c2ccccc2)cc1 (stereo not given)
3. CC(C)Oc1ccc(CCCO)c(Oc2ncc(C(F)(F)F)cc2Cl)c1
4. CCCN(c1ccncc1)N1C(=O)C(C)(C)c2ccccc21
5. O=C1CCC(Cc2ccc(Cl)cc2)CN1 (stereo not given)
6. CC1CCCN1c1nccc(Oc2ccc(NC(=O)c3cc(F)cc(N4CCCCC4)c3)c3ccccc23)n1 (stereo not given)
7. COc1ccc(C(=O)Nc2ccc3ccc(Oc4cccc(F)c4)nc3n2)cc1

1. 66 to 68 °C
2. 177 to 180 °C
3. 72 to 73 °C
4. 125 to 127 °C
5. 118 to 120 °C
6. 93 to 94 °C
7. 151 °C

Need melting point for each of these molecules.
1. COc1cc(Br)c(S(C)(=O)=O)cc1C(=O)O
2. O=C(C1=C(c2ccccc2)c2ccccc2S1=O)c1ccc(O)cc1 (stereo not given)
3. COc1cc2c(cc1O)C1Cc3c(Cl)cc(OC)c(OC(C)=O)c3CN1CC2 (single isomer, unassigned; (-))
4. CCC1CCn2c(nc(-c3ccncn3)cc2=O)N1CC(=O)c1ccccc1 (stereo not given)

1: 225 to 258 °C; 2: 140 to 145 °C; 3: 172 to 173 °C; 4: 187 to 189 °C

Provide melting point values for the following items, in order.
1. O=C1c2ccccc2CN1C1CCN(c2ccc(C(OCCCc3ccccc3)c3ccccc3)cc2)CC1 (stereo not given)
2. CC(=O)N1CCN=C1Nc1cc(C)nn1-c1cccc(C(F)(F)F)c1
3. O=C(O)CCCCCCC(=O)c1cccnc1
4. Cc1ccc(C(c2ccccc2)C(O)CN(C)C)cc1 (stereo not given)
5. O=C(Nc1ccc(F)c(C(F)(F)F)c1)N1COc2cc(O)ccc21

117 to 120 °C
173 to 175 °C
113 to 115 °C
55 to 58 °C
171 to 172 °C
